target: Cytochrome P450 2D6 (Homo sapiens); test: Inhibition of CYP2D6 in human liver microsomes; assay type: ADME; conditions: human, microsomes
Sequence (P10635 whole entry): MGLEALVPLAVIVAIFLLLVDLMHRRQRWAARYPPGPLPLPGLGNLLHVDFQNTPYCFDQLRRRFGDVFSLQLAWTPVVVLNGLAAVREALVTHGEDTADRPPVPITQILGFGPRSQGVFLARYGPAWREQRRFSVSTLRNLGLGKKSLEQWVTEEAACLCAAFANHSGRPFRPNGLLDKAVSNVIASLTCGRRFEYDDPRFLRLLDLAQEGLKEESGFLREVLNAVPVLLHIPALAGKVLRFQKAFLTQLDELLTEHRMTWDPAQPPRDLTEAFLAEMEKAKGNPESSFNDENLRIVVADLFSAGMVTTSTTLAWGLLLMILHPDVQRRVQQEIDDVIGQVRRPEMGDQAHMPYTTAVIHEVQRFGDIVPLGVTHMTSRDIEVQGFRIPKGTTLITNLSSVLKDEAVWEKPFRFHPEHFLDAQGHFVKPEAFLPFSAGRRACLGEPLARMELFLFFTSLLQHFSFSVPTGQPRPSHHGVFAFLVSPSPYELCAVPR
quantity-kind: inhibition (INH)

These recorded examples may help you get a feel for the data.
{"compound": "CC(C)COc1ccc(-c2cn(C)c3cc(C(=O)NS(=O)(=O)C4CC4)c(F)cc23)cn1", "test-target": "Cytochrome P450 2D6 (Homo sapiens)", "inhibition (INH)": "Not Active"}
{"compound": "CC(C)COc1ccc(-c2nn(C)c3cc(C(=O)NS(=O)(=O)C4CC4)c(F)cc23)cn1", "test-target": "Cytochrome P450 2D6 (Homo sapiens)", "inhibition (INH)": "Not Active"}
{"compound": "Cn1cc(-c2cnc(OCC3CC3)c(Cl)c2)c2ccc(C(=O)NS(=O)(=O)C3CC3)cc21", "test-target": "Cytochrome P450 2D6 (Homo sapiens)", "inhibition (INH)": "Not Active"}
{"compound": "Cn1nc(-c2ccc(C(F)(F)F)cc2)c2cc(F)c(C(=O)NS(=O)(=O)C3CC3)cc21", "test-target": "Cytochrome P450 2D6 (Homo sapiens)", "inhibition (INH)": "Not Active"}
{"compound": "CC(C)Cc1ccc(-c2cn(C)c3cc(C(=O)NS(C)(=O)=O)ccc23)cc1", "test-target": "Cytochrome P450 2D6 (Homo sapiens)", "inhibition (INH)": "Not Active"}
{"compound": "Cn1cc(-c2ccc(C(F)(F)F)cc2)c2ccc(C(=O)NS(=O)(=O)C3CC3)cc21", "test-target": "Cytochrome P450 2D6 (Homo sapiens)", "inhibition (INH)": "Not Active"}
{"compound": "CC(C)COc1ncc(-c2cn(C)c3cc(C(=O)NS(=O)(=O)C4CC4)c(F)cc23)cc1Cl", "test-target": "Cytochrome P450 2D6 (Homo sapiens)", "inhibition (INH)": "Not Active"}
{"compound": "CC(C)COc1ncc(-c2nn(C)c3cc(C(=O)NS(C)(=O)=O)ccc23)cc1Cl", "test-target": "Cytochrome P450 2D6 (Homo sapiens)", "inhibition (INH)": "Not Active"}

Specify measured inhibition (INH) for Cn1cc(-c2ccc(C(F)(F)F)cc2)c2ccc(C(=O)NS(C)(=O)=O)cc21 .
Not Active

Specify measured inhibition (INH) for Cn1cc(-c2ccc(C(F)F)cc2)c2cc(F)c(C(=O)NS(=O)(=O)C3CC3)cc21 .
Not Active

Specify measured inhibition (INH) for Cn1cc(-c2ccc(C(F)(F)F)cc2)c2cc(F)c(C(=O)NS(=O)(=O)C3CC3)cc21 .
Not Active

Specify measured inhibition (INH) for Cn1cc(-c2ccc(C(F)(F)F)cc2)c2cc(F)c(C(=O)NS(C)(=O)=O)cc21 .
Not Active

Specify measured inhibition (INH) for CC(C)COc1ncc(-c2cn(C)c3cc(C(=O)NS(C)(=O)=O)c(F)cc23)cc1Cl .
Not Active
